Attribution: patent US20240270821A1

study.target: hGcgR (Homo sapiens)
Sequence (P47871 26-477): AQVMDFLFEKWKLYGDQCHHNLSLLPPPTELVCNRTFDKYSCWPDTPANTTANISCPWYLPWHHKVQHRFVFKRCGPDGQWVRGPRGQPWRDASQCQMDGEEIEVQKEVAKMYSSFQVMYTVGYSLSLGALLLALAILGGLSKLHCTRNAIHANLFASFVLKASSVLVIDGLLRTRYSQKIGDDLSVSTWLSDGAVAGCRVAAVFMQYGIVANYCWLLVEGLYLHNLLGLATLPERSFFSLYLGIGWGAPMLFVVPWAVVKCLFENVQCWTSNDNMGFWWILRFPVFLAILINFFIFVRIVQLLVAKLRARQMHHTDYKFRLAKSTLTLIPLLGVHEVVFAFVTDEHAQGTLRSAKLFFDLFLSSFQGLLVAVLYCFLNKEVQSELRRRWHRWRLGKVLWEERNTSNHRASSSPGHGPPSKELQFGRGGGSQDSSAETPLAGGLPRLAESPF
measurement.description: Functional cAMP activation in the presence of 0.1% casein (no HSA);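 note: intracellular cAMP rise after 30 min at 37 °C, read by HTRF against a cAMP standard curve, scaled from buffer only (0%) to maximal control ligand response (100%)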
Assay type: cell-based
setup.conditions: in the presence of 0.1% casein (no HSA); geometric mean; read-out: Relative cAMP EC50, hGcgR
Starred links: 1 amine or outer side, 2 acyl side, 3 side chain; linkers in the order of their positions; H or OH if unused. Non-standard residues stand in square brackets, D forms with d. Groups on a side chain read outwards from the residue. *: point of attachment. C18 diacid = O=C(O)CCCCCCCCCCCCCCCCC(=O)*; γGlu = O=C(O)[C@H](CCC(=O)[*:2])N[*:1]; αMe4Pal = C[C@](N)(Cc1ccncc1)C(=O)O; αMeY = C[C@](N)(Cc1ccc(O)cc1)C(=O)O; 4Pal = N[C@@H](Cc1ccncc1)C(=O)O; αMeL = CC(C)C[C@](C)(N)C(=O)O; Orn = NCCC[C@H](N)C(=O)O; AEEA = NCCOCCOCC(=O)O; Aib = CC(C)(N)C(=O)O
quantity.measured: pEC50
For clarity, pEC50 is expressed as the negative log10 of concentration in mol/L.

# annotated cases, reported pEC50 shown
INSERT INTO assay_data (substance, experimental_value) VALUES
  ('H-Y[Aib]QGTFTSDFS[Orn][αMeL]LDKK([AEEA-γGlu-C18 diacid])AQ[Aib]AFIEYLLAGGPSSGAPPPSGT-NH2 [Example 87]', 8.07),
  ('H-Y[Aib]QGTFTSDFSK[αMeL]LDKK([AEEA-γGlu-C18 diacid])AQ[Aib]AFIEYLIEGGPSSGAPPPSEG-NH2 [Example 49]', 8.26);

Here is another substance to look at.
Supply recorded pEC50 for H-Y[Aib]QGTFTSD[4Pal]SQ[αMeL]LD[Orn]K([dE-γGlu-C18 diacid])AQ[αMe4Pal]QFIE[αMeY]LLAGGPSSGAPPPSGSEEE-NH2 [Example 1084] here.
7.94

====

Reported pEC50 values are given for each entry in this list.
study.target: hGIPR (Homo sapiens, UniProt P48546)
Sequence (P48546 22-466): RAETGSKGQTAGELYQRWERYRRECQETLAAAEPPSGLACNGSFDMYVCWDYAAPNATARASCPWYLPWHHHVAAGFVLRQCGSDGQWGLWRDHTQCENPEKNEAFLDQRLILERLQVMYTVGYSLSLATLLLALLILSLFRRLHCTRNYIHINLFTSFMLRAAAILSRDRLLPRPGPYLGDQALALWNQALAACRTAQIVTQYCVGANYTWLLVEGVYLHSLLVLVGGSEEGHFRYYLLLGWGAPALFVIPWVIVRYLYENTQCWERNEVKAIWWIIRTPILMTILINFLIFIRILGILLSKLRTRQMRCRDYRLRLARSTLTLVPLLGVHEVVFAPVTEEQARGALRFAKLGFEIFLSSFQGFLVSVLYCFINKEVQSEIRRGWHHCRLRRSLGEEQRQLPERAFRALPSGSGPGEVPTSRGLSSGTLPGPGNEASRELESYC
measurement.description: Functional cAMP activity in the presence of 1% HSA
Type: cell-based
setup.conditions: read-out: cAMP Rel EC50, hGIPR
Starred links: 1 amine or outer side, 2 acyl side, 3 side chain; linkers in the order of their positions; H or OH if unused. Non-standard residues stand in square brackets, D forms with d. Groups on a side chain read outwards from the residue. *: point of attachment. C20 diacid = O=C(O)CCCCCCCCCCCCCCCCCCC(=O)*; C18 diacid = O=C(O)CCCCCCCCCCCCCCCCC(=O)*; γGlu = O=C(O)[C@H](CCC(=O)[*:2])N[*:1]; αMeL = CC(C)C[C@](C)(N)C(=O)O; Orn = NCCC[C@H](N)C(=O)O; AEEA = NCCOCCOCC(=O)O; Aib = CC(C)(N)C(=O)O
For clarity, pEC50 is expressed as the negative log10 of concentration in mol/L.

# annotated cases, reported pEC50 shown
INSERT INTO measurements (substance, quantity_measured, experimental_value) VALUES
  ('H-Y[Aib]QGTFTSDFS[Orn][αMeL]LDKK([AEEA-AEEA-γGlu-C18 diacid])AQ[Aib]AFIEYLLE[dA]GPSSGEPPPSGT-NH2 [Example 156]', 'pEC50', 7.59),
  ('H-Y[Aib]QGTFTSDFSK[αMeL]LDKK([AEEA-AEEA-γGlu-C20 diacid])AQ[Aib]AFIEYLLEGGPSSGAPPPGEG-NH2 [Example 17]', 'pEC50', 7.04);

Here is another substance to look at.
Supply recorded pEC50 for H-Y[Aib]QGTFTSDFS[Orn][αMeL]LDKK([AEEA-γGlu-C18 diacid])AQ[Aib]AFIEWLLEGGSSSGAPPPSGS-NH2 [Example 173] here.
7.30
